species on record: Oryctolagus cuniculus; test: Maximum contractile force in rabbit aorta strips; format: functional
Max contractile force for assorted molecules
Your answer should be a plain number; it is taken to be in mg.

* CC1=NC(C)=C(C(=O)OCCN2C(=O)c3ccccc3S2(=O)=O)C(c2cccc([N+](=O)[O-])c2)/C1=C(\O)OCC1CCCCO1 (centres undefined) | 1940

Please give the documented Max contractile force of CO/C(O)=C1\C(C)=NC(C)=C(C(=O)OCCN2C(=O)c3ccccc3S2(=O)=O)C1c1ccccc1Cl (centres undefined)
610

Please give the documented Max contractile force of CC1=NC(C)=C(C(=O)OCCN2C(=O)c3ccccc3S2(=O)=O)C(c2ccccc2Cl)/C1=C(\O)OCC1CCCCO1 (centres undefined)
510

Please give the documented Max contractile force of CO/C(O)=C1\C(C)=NC(C)=C(C(=O)OCCN2C(=O)c3ccccc3S2(=O)=O)C1c1ccccc1C(F)(F)F (centres undefined)
420

###

IC50 for assorted compounds
organism: Oryctolagus cuniculus; experiment: Blockade of calcium-evoked contractions evaluated in depolarized rabbit aortic strips; format: functional; conditions: Aorta

* CC1=NC(C)=C(C(=O)OCCN2C(=O)c3ccccc3S2(=O)=O)C(c2ccccc2[N+](=O)[O-])/C1=C(\O)OCC1CCCCO1 (centres undefined) | > 1000 nM

Please give the documented IC50 of CC1=NC(C)=C(C(=O)OCCCN2C(=O)c3ccccc3S2(=O)=O)C(c2ccccc2Cl)/C1=C(\O)OC(C)C (centres undefined)
1.3 nM

Please give the documented IC50 of CC1=NC(C)=C(C(=O)OCCN2C(=O)c3ccccc3S2(=O)=O)C(c2ccccc2C(F)(F)F)/C1=C(\O)OC(C)C (centres undefined)
1 nM

Please give the documented IC50 of CC1=NC(C)=C(C(=O)OCCN2C(=O)c3ccccc3S2(=O)=O)C(c2cccc(Cl)c2Cl)/C1=C(\O)OCC1CCCCO1 (centres undefined)
11.1 nM

###

species on record: Oryctolagus cuniculus; test: Blockade of calcium-evoked contractions evaluated in depolarized rabbit aortic strips; type: functional; details: Aorta
measuredMetric: pIC50
The meaning of pIC50 here: minus log10 of the concentration in molar units.

Worked examples follow.
- CCO/C(O)=C1\C(C)=NC(C)=C(C(=O)OCCCN2C(=O)c3ccccc3S2(=O)=O)C1c1cccc(Cl)c1Cl (stereo not given): 8.74
- CCO/C(O)=C1\C(C)=NC(C)=C(C(=O)OCCN2C(=O)c3ccccc3S2(=O)=O)C1c1cccc([N+](=O)[O-])c1 (stereo not given): 8.59
- CC1=NC(C)=C(C(=O)OCCCN2C(=O)c3ccccc3S2(=O)=O)C(c2ccccc2Cl)/C1=C(\O)OCC1CCCO1 (stereo not given): 8.15
- CC1=NC(C)=C(C(=O)OCCN2C(=O)c3ccccc3S2(=O)=O)C(c2ccccc2Cl)/C1=C(\O)OC(C)C (stereo not given): 8.51
- CCO/C(O)=C1\C(C)=NC(C)=C(C(=O)OCCCN2C(=O)c3ccccc3S2(=O)=O)C1c1cccc([N+](=O)[O-])c1 (stereo not given): 8.72
- CC1=NC(C)=C(C(=O)OCCCN2C(=O)c3ccccc3S2(=O)=O)C(c2ccccc2Cl)/C1=C(\O)OCC1CCCCO1 (stereo not given): 8.15
- CCO/C(O)=C1\C(C)=NC(C)=C(C(=O)OCCN2C(=O)c3ccccc3S2(=O)=O)C1c1ccccc1C(F)(F)F (stereo not given): 9.30
- COCCO/C(O)=C1\C(C)=NC(C)=C(C(=O)OCCCN2C(=O)c3ccccc3S2(=O)=O)C1c1ccccc1C(F)(F)F (stereo not given): 8.85

Kindly review the next molecule as well.
Please give the documented pIC50 of CC1=NC(C)=C(C(=O)OCCCN2C(=O)c3ccccc3S2(=O)=O)C(c2ccccc2[N+](=O)[O-])/C1=C(\O)OC(C)C (stereo not given)
8.92

###

pIC50 for assorted compounds
species: Oryctolagus cuniculus; assay: Blockade of calcium-evoked contractions evaluated in depolarized rabbit aortic strips; format: functional; details: Aorta
The meaning of pIC50 here: minus log10 of the concentration in molar units.

Worked examples follow.
- CCO/C(O)=C1\C(C)=NC(C)=C(C(=O)OCCN2C(=O)c3ccccc3S2(=O)=O)C1c1cccc(Cl)c1Cl (stereo not drawn): 8.40
- CC1=NC(C)=C(C(=O)OCCCN2C(=O)c3ccccc3S2(=O)=O)C(c2cccc([N+](=O)[O-])c2)/C1=C(\O)OCC1CCCO1 (stereo not drawn): 7.98
- CO/C(O)=C1\C(C)=NC(C)=C(C(=O)OCCCN2C(=O)c3ccccc3S2(=O)=O)C1c1cccc(Cl)c1Cl (stereo not drawn): 9.10
- CC1=NC(C)=C(C(=O)OCCCN2C(=O)c3ccccc3S2(=O)=O)C(c2ccccc2[N+](=O)[O-])/C1=C(\O)OCC1CCCO1 (stereo not drawn): 8.17
- CC1=NC(C)=C(C(=O)OCCCN2C(=O)c3ccccc3S2(=O)=O)C(c2ccccc2C(F)(F)F)/C1=C(\O)OCC1CCCO1 (stereo not drawn): 8.43
- CC1=NC(C)=C(C(=O)OCCCN2C(=O)c3ccccc3S2(=O)=O)C(c2cccc([N+](=O)[O-])c2)/C1=C(\O)OC(C)C (stereo not drawn): 9.00

Please give the documented pIC50 of CC1=NC(C)=C(C(=O)OCCCN2C(=O)c3ccccc3S2(=O)=O)C(c2ccccc2C(F)(F)F)/C1=C(\O)OC(C)C (stereo not drawn)
8.57

###

Selectivity index for assorted compounds
target: Voltage-dependent L-type calcium channel subunit alpha-1C (Oryctolagus cuniculus); assay: Selectivity index was measured as the IC50 needed to depress the heart beat divided by IC50 needed to block [Ca2+] contractions in rabbit aortic strips; type: functional, tissue-based, Aorta
Number only, please.

Worked examples follow.
- CC1=NC(C)=C(C(=O)OCCCN2C(=O)c3ccccc3S2(=O)=O)C(c2cccc(Cl)c2Cl)/C1=C(\O)OC(C)C (centres undefined): 75
- CC1=NC(C)=C(C(=O)OCCCN2C(=O)c3ccccc3S2(=O)=O)C(c2cccc([N+](=O)[O-])c2)/C1=C(\O)OC(C)C (centres undefined): 205
- CO/C(O)=C1\C(C)=NC(C)=C(C(=O)OCCCN2C(=O)c3ccccc3S2(=O)=O)C1c1ccccc1[N+](=O)[O-] (centres undefined): 80

Lab note: record Selectivity index of CC1=NC(C)=C(C(=O)OCCN2C(=O)c3ccccc3S2(=O)=O)C(c2ccccc2[N+](=O)[O-])/C1=C(\O)OC(C)(C)C (centres undefined) tested on Voltage-dependent L-type calcium channel subunit alpha-1C (Oryctolagus cuniculus).
41

###

organism: Oryctolagus cuniculus; experiment: Blockade of calcium-evoked contractions evaluated in depolarized rabbit aortic strips; format: functional; details: Aorta
measuredMetric: pIC50
The meaning of pIC50 here: minus log10 of the concentration in molar units.

Worked examples follow.
* CC1=NC(C)=C(C(=O)OCCN2C(=O)c3ccccc3S2(=O)=O)C(c2ccccc2Cl)/C1=C(\O)OCC1CCCO1 (configuration not stated) | 8.46
* CCO/C(O)=C1\C(C)=NC(C)=C(C(=O)OCCCN2C(=O)c3ccccc3S2(=O)=O)C1c1ccccc1Cl (configuration not stated) | 8.41
* CC1=NC(C)=C(C(=O)OCCCN2C(=O)c3ccccc3S2(=O)=O)C(c2cccc(Cl)c2Cl)/C1=C(\O)OC(C)(C)C (configuration not stated) | 8.51
* CC1=NC(C)=C(C(=O)OCCN2C(=O)c3ccccc3S2(=O)=O)C(c2cccc([N+](=O)[O-])c2)/C1=C(\O)OCC1CCCO1 (configuration not stated) | 6.97

Please give the documented pIC50 of CCO/C(O)=C1\C(C)=NC(C)=C(C(=O)OCCN2C(=O)c3ccccc3S2(=O)=O)C1c1ccccc1Cl (configuration not stated)
8.00

Please give the documented pIC50 of COCCO/C(O)=C1\C(C)=NC(C)=C(C(=O)OCCCN2C(=O)c3ccccc3S2(=O)=O)C1c1ccccc1[N+](=O)[O-] (configuration not stated)
8.57

###

Selectivity index for assorted compounds
target: Voltage-dependent L-type calcium channel subunit alpha-1C (Oryctolagus cuniculus, UniProt P15381); assay: Selectivity index was measured as the IC50 needed to depress the heart beat divided by IC50 needed to block [Ca2+] contractions in rabbit aortic strips; type: functional, tissue-based, Aorta
Sequence (P15381 whole entry): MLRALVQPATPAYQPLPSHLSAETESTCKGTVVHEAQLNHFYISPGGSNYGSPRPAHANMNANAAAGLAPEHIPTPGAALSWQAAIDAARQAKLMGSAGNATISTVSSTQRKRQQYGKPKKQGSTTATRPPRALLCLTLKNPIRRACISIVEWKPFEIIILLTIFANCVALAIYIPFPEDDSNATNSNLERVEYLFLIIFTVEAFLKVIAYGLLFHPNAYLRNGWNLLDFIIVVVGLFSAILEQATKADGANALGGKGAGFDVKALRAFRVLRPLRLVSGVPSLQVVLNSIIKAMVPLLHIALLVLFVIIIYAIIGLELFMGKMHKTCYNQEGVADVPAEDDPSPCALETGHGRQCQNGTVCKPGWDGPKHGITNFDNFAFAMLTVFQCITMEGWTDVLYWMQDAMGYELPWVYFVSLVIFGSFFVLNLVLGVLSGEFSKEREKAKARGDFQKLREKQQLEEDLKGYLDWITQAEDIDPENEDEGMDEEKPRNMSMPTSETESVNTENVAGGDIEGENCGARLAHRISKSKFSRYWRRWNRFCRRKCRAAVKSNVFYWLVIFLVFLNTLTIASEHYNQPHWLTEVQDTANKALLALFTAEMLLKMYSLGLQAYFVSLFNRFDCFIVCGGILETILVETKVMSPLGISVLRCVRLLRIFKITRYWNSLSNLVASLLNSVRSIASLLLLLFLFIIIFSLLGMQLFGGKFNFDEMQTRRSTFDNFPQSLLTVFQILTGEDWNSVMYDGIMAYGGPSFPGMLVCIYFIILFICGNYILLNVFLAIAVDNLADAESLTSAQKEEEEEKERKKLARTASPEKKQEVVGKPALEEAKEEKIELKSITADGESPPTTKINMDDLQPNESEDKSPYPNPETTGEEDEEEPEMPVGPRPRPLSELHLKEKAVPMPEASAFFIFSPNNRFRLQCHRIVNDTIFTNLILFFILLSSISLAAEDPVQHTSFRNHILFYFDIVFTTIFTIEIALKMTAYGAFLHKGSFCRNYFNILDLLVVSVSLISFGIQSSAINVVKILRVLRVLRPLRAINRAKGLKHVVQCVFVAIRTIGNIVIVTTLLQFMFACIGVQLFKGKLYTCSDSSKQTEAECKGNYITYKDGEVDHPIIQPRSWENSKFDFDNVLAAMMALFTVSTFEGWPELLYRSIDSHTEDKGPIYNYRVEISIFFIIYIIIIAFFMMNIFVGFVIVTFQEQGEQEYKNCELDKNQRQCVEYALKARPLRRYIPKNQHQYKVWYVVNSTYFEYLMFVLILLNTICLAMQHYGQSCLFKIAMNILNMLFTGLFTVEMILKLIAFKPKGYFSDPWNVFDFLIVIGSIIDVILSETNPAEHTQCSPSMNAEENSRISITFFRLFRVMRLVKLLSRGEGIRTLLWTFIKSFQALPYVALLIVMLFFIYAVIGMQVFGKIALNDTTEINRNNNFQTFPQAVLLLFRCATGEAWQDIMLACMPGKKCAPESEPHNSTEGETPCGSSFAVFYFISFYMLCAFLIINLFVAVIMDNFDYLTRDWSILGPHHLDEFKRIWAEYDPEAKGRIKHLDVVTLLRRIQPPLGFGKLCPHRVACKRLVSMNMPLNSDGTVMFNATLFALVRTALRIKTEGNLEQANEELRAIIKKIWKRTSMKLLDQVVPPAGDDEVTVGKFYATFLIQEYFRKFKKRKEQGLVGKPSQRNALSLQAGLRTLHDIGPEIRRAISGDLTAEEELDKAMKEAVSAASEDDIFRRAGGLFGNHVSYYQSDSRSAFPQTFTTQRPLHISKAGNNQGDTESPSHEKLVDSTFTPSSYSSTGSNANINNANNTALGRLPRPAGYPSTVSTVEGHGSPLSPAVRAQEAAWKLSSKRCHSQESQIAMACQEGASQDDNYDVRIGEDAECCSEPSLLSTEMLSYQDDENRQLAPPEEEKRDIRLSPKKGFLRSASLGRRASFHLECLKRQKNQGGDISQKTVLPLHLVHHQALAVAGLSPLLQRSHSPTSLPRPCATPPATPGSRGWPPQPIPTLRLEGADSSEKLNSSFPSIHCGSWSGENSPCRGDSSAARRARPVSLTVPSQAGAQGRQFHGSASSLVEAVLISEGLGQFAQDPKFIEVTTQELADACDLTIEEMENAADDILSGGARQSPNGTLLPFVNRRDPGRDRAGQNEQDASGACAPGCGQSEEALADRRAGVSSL
Number only, please.

* CCO/C(O)=C1\C(C)=NC(C)=C(C(=O)OCCN2C(=O)c3ccccc3S2(=O)=O)C1c1ccccc1C(F)(F)F (configuration not stated) | 152

Please give the documented Selectivity index of CC1=NC(C)=C(C(=O)OCCCN2C(=O)c3ccccc3S2(=O)=O)C(c2ccccc2[N+](=O)[O-])/C1=C(\O)OC(C)C (configuration not stated)
15

Please give the documented Selectivity index of CC1=NC(C)=C(C(=O)OCCCN2C(=O)c3ccccc3S2(=O)=O)C(c2ccccc2Cl)/C1=C(\O)OC(C)C (configuration not stated)
37

Please give the documented Selectivity index of CCO/C(O)=C1\C(C)=NC(C)=C(C(=O)OCCCN2C(=O)c3ccccc3S2(=O)=O)C1c1ccccc1C(F)(F)F (configuration not stated)
163

Please give the documented Selectivity index of CC1=NC(C)=C(C(=O)OCCCN2C(=O)c3ccccc3S2(=O)=O)C(c2ccccc2C(F)(F)F)/C1=C(\O)OCC1CCCCO1 (configuration not stated)
121

Please give the documented Selectivity index of CC1=NC(C)=C(C(=O)OCCN2C(=O)c3ccccc3S2(=O)=O)C(c2cccc([N+](=O)[O-])c2)/C1=C(\O)OC(C)C (configuration not stated)
137

Please give the documented Selectivity index of CO/C(O)=C1\C(C)=NC(C)=C(C(=O)OCCCN2C(=O)c3ccccc3S2(=O)=O)C1c1ccccc1Cl (configuration not stated)
77
